What EC50 was measured for each of the following?
- system-tested: human SIRT3 (Homo sapiens, UniProt Q9NTG7)
- Sequence (Q9NTG7 102-399): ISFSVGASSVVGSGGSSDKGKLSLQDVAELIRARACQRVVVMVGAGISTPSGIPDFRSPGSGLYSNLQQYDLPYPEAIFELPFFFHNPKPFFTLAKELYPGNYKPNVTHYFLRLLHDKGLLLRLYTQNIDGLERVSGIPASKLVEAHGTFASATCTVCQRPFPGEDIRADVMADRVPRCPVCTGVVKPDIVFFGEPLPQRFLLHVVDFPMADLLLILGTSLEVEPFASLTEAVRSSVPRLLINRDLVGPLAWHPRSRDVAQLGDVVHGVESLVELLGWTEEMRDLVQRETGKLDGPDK
- test-description: Fluorescence polarization assay to identify modulators of SIRT3 activity
- experimental-context: activation of SIRT3 (Table 5); read-out: ED50 (the source's name)
- Text: A fluorescence polarization assay was used to identify modulators of SIRT3 activity. The same assay may be used to identify modulators of any sirtuin protein. […] The peptide substrate is exposed to a sirtuin protein in the presence of NAD^+ to allow deacetylation of the substrate and render it sensitive to cleavage by trypsin. […] Results are read on a microplate fluorescence polarization reader (Molecular Devices Spectramax MD) with appropriate excitation and emission filters. […]

molecule | assay-readout | data-value
CCCCNc1c(-c2ccc(C#N)cc2)nc2c(C(=O)NC(CC(=O)O)c3cccc([N+](=O)[O-])c3)cccn12 (stereo not shown) | EC50 | 51 to 100 µM
Nc1ccc(-c2nc3ccc(-c4nc5ccc(N)cc5[nH]4)cc3[nH]2)cc1 | EC50 | > 150 µM
COc1cccc(-c2nc3c(C(=O)NC(CC(=O)O)C4CCCCC4)cccn3c2NCc2ccccc2)c1 (stereo not shown) | EC50 | 51 to 100 µM

Okay, next one:
Documented EC50 of N#Cc1ccc(-c2nc3c(C(=O)NC(CC(=O)O)C4CCCCC4)cccn3c2NCc2ccccc2)cc1 (stereo not shown) : < 50 µM

###

What EC50 was measured for each of the following?
- system-tested: SIRT1 (Homo sapiens, UniProt Q96EB6)
- Sequence (Q96EB6 whole entry): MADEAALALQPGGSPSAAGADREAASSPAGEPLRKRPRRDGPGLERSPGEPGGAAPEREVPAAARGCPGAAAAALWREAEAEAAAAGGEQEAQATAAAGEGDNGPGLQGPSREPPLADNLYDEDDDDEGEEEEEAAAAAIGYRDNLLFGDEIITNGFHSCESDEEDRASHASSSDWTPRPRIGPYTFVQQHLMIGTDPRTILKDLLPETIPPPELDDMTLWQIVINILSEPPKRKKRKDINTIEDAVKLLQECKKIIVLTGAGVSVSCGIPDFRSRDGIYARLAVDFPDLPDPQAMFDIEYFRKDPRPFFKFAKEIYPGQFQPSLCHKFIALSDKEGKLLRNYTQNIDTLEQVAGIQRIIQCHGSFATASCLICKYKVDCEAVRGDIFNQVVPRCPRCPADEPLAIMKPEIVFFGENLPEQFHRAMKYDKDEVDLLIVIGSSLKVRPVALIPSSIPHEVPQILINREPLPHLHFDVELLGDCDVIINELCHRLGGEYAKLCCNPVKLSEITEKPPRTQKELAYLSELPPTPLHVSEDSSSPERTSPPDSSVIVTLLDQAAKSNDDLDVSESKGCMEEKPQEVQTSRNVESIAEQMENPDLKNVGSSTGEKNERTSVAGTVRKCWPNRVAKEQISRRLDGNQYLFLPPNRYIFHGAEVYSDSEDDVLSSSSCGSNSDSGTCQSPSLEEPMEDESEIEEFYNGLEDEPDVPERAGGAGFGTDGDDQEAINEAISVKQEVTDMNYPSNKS
- test-description: Fluorescence polarization or mass spectrometry based assay to identify modulators of SIRT1 activity
- experimental-context: activation of SIRT1 (Table 3); read-out: ED50 (the source's name)

compound | EC50
COc1cc(/C=C(\C#N)c2nc3ccccc3[nH]2)cc(OC)c1OC | 101 to 150 µM
N#Cc1ccc(-c2nc3c(C(=O)NC(CC(=O)O)C4CCCCC4)cccn3c2NCc2ccccc2)cc1 (stereo not drawn) | 51 to 100 µM
COc1cccc2c1c(NC(=O)c1cc3ccccc3s1)nn2C | > 150 µM
COCCNC(=O)c1cccn2c(NCc3ccccc3)c(-c3ccc(NC(=O)C4CC4)cc3)nc12 | 51 to 100 µM

Give EC50 for each listed item.
1. O=C(Nc1cccc(-c2nc3ccccc3[nH]2)c1)c1ccco1
2. CC(=O)Nc1ccc(-c2nc3c(C(=O)NCC(=O)NCCC#N)cccn3c2NCc2ccccc2)cc1

Reply:
1. 51 to 100 µM
2. 51 to 100 µM

###

What EC50 was measured for each of the following?
- system-tested: SIRT1 (Homo sapiens, UniProt Q96EB6)
- test-description: Fluorescence polarization or mass spectrometry based assay to identify modulators of SIRT1 activity;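 note: deacetylation of a fluorophore-tagged p53-derived acetyl peptide by SIRT1, detected as fluorescence polarization after trypsin cleavage and streptavidin binding, compounds tested at 11 doses from 0.7 to 100 µM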
- experimental-context: activation of SIRT1 (Table 3); read-out: ED50 (the source's name)

molecule | system-tested | data-value
O=C(NCCCN1CCCC1=O)c1cccn2c(NC3CCCCC3)c(-c3ccc(NC(=O)C4CC4)cc3)nc12 | SIRT1 (Homo sapiens, UniProt Q96EB6) | 51 to 100 µM
N#CCCNC(=O)CNC(=O)c1cccn2c(NCC3CCCO3)c(-c3ccc(Cl)cc3)nc12 (centres unmarked) | SIRT1 (Homo sapiens, UniProt Q96EB6) | 51 to 100 µM
Nc1ccc2[nH]c(-c3cccc(-c4nc5cc(N)ccc5[nH]4)c3)nc2c1 | SIRT1 (Homo sapiens, UniProt Q96EB6) | 51 to 100 µM
COC(=O)c1[nH]c2cc(OC)c(OC)cc2c1NC(=O)c1cccc(OC)c1 | SIRT1 (Homo sapiens, UniProt Q96EB6) | > 150 µM
Cc1[nH]c2ccccc2c1/C=C(\C#N)c1nc2ccccc2[nH]1 | SIRT1 (Homo sapiens, UniProt Q96EB6) | 101 to 150 µM
COc1ccc2nc3s/c(=C\c4ccc(-c5ccc(Cl)c(C(=O)O)c5)o4)c(=O)n3c2c1 | SIRT1 (Homo sapiens, UniProt Q96EB6) | < 50 µM

Give EC50 for each listed item.
1. CN(C)/C=C(\C#N)c1nc2ccccc2[nH]1
2. CCCCNc1c(-c2ccc(OC)c([N+](=O)[O-])c2)nc2c(C(=O)NC(CC(=O)O)C3CCCCC3)cccn12 (centres unmarked)
3. O=C(Nc1cccc(-c2nc3ccccc3[nH]2)c1)c1cccnc1
4. CC(=O)Nc1ccc(-c2nc3c(C(=O)NCc4cccc(CN)c4)cccn3c2NCc2ccccc2)cc1
5. Cc1cccc(-c2nc3c(C(=O)NC4CCC(N)CC4)cccn3c2NCc2ccccc2)c1 (centres unmarked)
6. CC(=O)Nc1ccc(-c2nc3c(C(=O)NC(CC(=O)O)C4CCCCC4)cccn3c2NCc2ccccc2)cc1 (centres unmarked)
7. Nc1nc2ccc(-c3nc4ccccc4[nH]3)cc2s1

Reply:
1. 51 to 100 µM
2. 101 to 150 µM
3. > 150 µM
4. 51 to 100 µM
5. 101 to 150 µM
6. 51 to 100 µM
7. 101 to 150 µM
